Quick reference for logD among some molecules
# protocol_notes: Experimental LogD (partition coefficient)
# assay_context: not stated, Partition Coeff LogD
Positions of bridges follow the written chain, without caps; N, C: chain ends. Non-standard residues stand in square brackets, D forms with d. Residues, ends and D or L forms follow the SMILES beside them. Lys(N3) = [N-]=[N+]=NCCCC[C@H](N)C(=O)O; R8 = C=CCCCCCC[C@@](C)(N)C(=O)O; Cba = N[C@@H](CC1CCC1)C(=O)O; S5 = C=CCCC[C@](C)(N)C(=O)O; βAla = NCCC(=O)O
Lab note: jot down the number only; don't add units.

Field request: logD | item: CC(=O)N[C@H](C)C(=O)N[C@H](C)C(=O)N[C@H](C)C(=O)N[C@H](C)C(=O)N[C@@H](CC(C)C)C(=O)N[C@H](C(=O)N[C@@H](Cc1ccccc1)C(=O)N[C@]1(C)CCCCCCC=CCCC[C@@](C)(C(=O)N[C@@H](CO)C(=O)N[C@@H](C)C(=O)N[C@@H](C)C(N)=O)NC(=O)[C@H](CC2CCC2)NC(=O)[C@H](CCC(N)=O)NC(=O)[C@H](C)NC(=O)[C@H](Cc2c[nH]c3ccccc23)NC(=O)[C@H](Cc2ccc(O)cc2)NC(=O)[C@H](CCC(=O)O)NC1=O)[C@@H](C)O [MP-365]
2.6

Field request: logD | item: CC(=O)N[C@@H](CCCCN=[N+]=[N-])C(=O)NCCC(=O)N[C@@H](CC(C)C)C(=O)N[C@H](C(=O)N[C@@H](Cc1ccccc1)C(=O)N[C@]1(C)CCCCCCC=CCCC[C@@](C)(C(=O)N[C@@H](CO)C(=O)N[C@@H](C)C(=O)N[C@@H](C)C(N)=O)NC(=O)[C@H](CC2CCC2)NC(=O)[C@H](CCC(N)=O)NC(=O)[C@H](C)NC(=O)[C@H](Cc2c[nH]c3ccccc23)NC(=O)[C@H](Cc2ccc(O)cc2)NC(=O)[C@H](CCC(=O)O)NC1=O)C(C)C [MP-258] (Ac-[Lys(N3)][βAla]LVF[R8]EYWAQ[Cba][S5]SAA-NH2; staple 6-13)
2.93

====

# protocol_notes: Lactate dehydrogenase (LDH) release assay
# Type: cell-based
# assay_context: LDH: Cytotoxicity assay EC50
pEC50: −log10 of the molar value. Positions of bridges follow the written chain, without caps; N, C: chain ends. Non-standard residues stand in square brackets, D forms with d. Residues, ends and D or L forms follow the SMILES beside them. R8 = C=CCCCCCC[C@@](C)(N)C(=O)O; S5 = C=CCCC[C@](C)(N)C(=O)O
property_label: pEC50

As a guide, the following entries are already answered.
- CC(=O)N[C@H](C(=O)N[C@@H](CO)C(=O)N[C@@H](CC(C)C)C(=O)N[C@]1(C)CCCCCCC=CCCC[C@@](C)(C(N)=O)NC(=O)[C@H](Cc2c[nH]c3ccccc23)NC(=O)[C@H](CC(C)C)NC(=O)[C@H](C)NC(=O)[C@H](Cc2ccccc2)NC(=O)[C@H](Cc2ccc(O)cc2)NC(=O)[C@H](CCC(=O)O)NC1=O)[C@@H](C)O [MP-2040] (Ac-TSL[R8]EYFALW[S5]-NH2; staple 4-11): < 4.30
- CC(C)C[C@@H]1NC(=O)[C@H](C)NC(=O)[C@H](Cc2c[nH]c3ccccc23)NC(=O)[C@H](Cc2ccc(O)cc2)NC(=O)[C@H](CCC(=O)O)NC(=O)[C@](C)(NC(=O)[C@H](Cc2ccccc2)NC(=O)[C@H](CO)NC(=O)[C@@H](NC(=O)[C@H](CO)NC(=O)CNC(=O)[C@H](CO)NC(=O)[C@@H](N)CCCCN=[N+]=[N-])[C@@H](C)O)CCCCCCC=CCCC[C@@](C)(C(N)=O)NC(=O)[C@H](CC(C)C)NC1=O: < 4.30
- CC(=O)N[C@@H](CCCCN=[N+]=[N-])C(=O)NCCC(=O)N(C)[C@@H](CC(C)C)C(=O)N[C@H](C(=O)N[C@@H](Cc1ccccc1)C(=O)N[C@]1(C)CCCCCCC=CCCC[C@@](C)(C(=O)N[C@@H](CO)C(=O)N[C@@H](C)C(=O)N[C@@H](C)C(N)=O)NC(=O)[C@H](CC2CCC2)NC(=O)[C@H](CCC(N)=O)NC(=O)[C@H](C)NC(=O)[C@H](Cc2c[nH]c3ccccc23)NC(=O)[C@H](Cc2ccc(O)cc2)NC(=O)[C@H](CCC(=O)O)NC1=O)[C@@H](C)O: < 4.30
- CC(=O)N[C@H](C(=O)N[C@@H](CCCNC(N)=O)C(=O)N[C@@H](CC(C)C)C(=O)N[C@H](C(=O)N[C@@H](Cc1ccccc1)C(=O)N[C@]1(C)CCCCCCC=CCCC[C@@](C)(C(=O)N[C@@H](CO)C(=O)N[C@@H](C)C(=O)N[C@@H](C)C(N)=O)NC(=O)[C@H](CC2CCC2)NC(=O)[C@H](CCC(N)=O)NC(=O)[C@H](C)NC(=O)[C@H](Cc2c[nH]c3ccccc23)NC(=O)[C@H](Cc2ccc(O)cc2)NC(=O)[C@H](CCC(=O)O)NC1=O)[C@@H](C)O)C(C)C: < 4.30

Field request: pEC50 | item: CC(=O)N[C@H](C(=O)N[C@@H](CO)C(=O)N[C@@H](Cc1ccccc1)C(=O)N[C@]1(C)CCCCCCC=CCCC[C@@](C)(C(=O)N[C@@H](CCC(=O)O)C(N)=O)NC(=O)[C@H](CC(C)C)NC(=O)[C@H](CC(C)C)NC(=O)[C@H](C)NC(=O)[C@H](Cc2c[nH]c3ccccc23)NC(=O)[C@H](Cc2ccc(O)cc2)NC(=O)[C@H](CCC(=O)O)NC1=O)[C@@H](C)O
4.41

====

# protocol_notes: Lactate dehydrogenase (LDH) release assay
# Assay type: cell-based
# assay_context: 10% FBS 4Hr; read-out: LDH: Cytotoxicity assay EC50
property_label: EC50

Field request: EC50 | item: CC(=O)N[C@@H](CCCCN=[N+]=[N-])C(=O)NCCC(=O)N[C@@H](CC(C)C)C(=O)N[C@H](C(=O)N[C@@H](Cc1ccccc1)C(=O)N[C@]1(C)CCCCCCC=CCCC[C@@](C)(C(=O)N[C@@H](CO)C(=O)N[C@@H](C)C(=O)N[C@@H](C)C(N)=O)NC(=O)[C@H](CC2CCC2)NC(=O)[C@H](CCC(N)=O)NC(=O)[C@H](C)NC(=O)[C@H](Cc2c[nH]c3ccccc23)NC(=O)[C@H](Cc2ccc(O)cc2)NC(=O)[C@H](Cc2c[nH]cn2)NC1=O)[C@@H](C)O [MP-175, AZIDE-ATSP-7041 (E5H)]
> 50 µM

====

Quick reference for LDH: Cytotoxicity assay: % Effect among some molecules
# System: HCT116 cells
# protocol_notes: Lactate dehydrogenase (LDH) release assay
# Assay type: cell-based
Positions of bridges follow the written chain, without caps; N, C: chain ends. Non-standard residues stand in square brackets, D forms with d. Residues, ends and D or L forms follow the SMILES beside them. Lys(N3) = [N-]=[N+]=NCCCC[C@H](N)C(=O)O; R8 = C=CCCCCCC[C@@](C)(N)C(=O)O; Cba = N[C@@H](CC1CCC1)C(=O)O; S5 = C=CCCC[C@](C)(N)C(=O)O; βAla = NCCC(=O)O
Hi! Could you send only the number? It should be in %, unit omitted.

- CC(C)C[C@@H]1NC(=O)[C@H](C)NC(=O)[C@H](Cc2c[nH]c3ccccc23)NC(=O)[C@H](Cc2ccc(O)cc2)NC(=O)[C@H](CCC(=O)O)NC(=O)[C@](C)(NC(=O)[C@H](Cc2ccccc2)NC(=O)[C@H](CO)NC(=O)[C@@H](NC(=O)[C@H](CO)NC(=O)CNC(=O)[C@@H](N)CCCCN=[N+]=[N-])[C@@H](C)O)CCCCCCC=CCCC[C@@](C)(C(N)=O)NC(=O)[C@H](CC(C)C)NC1=O: 3.75

With those in mind, consider the next molecule.
Field request: LDH: Cytotoxicity assay: % Effect | item: CC(=O)N[C@@H](CCCCN=[N+]=[N-])C(=O)NCCC(=O)NCC(=O)N[C@H](C(=O)N[C@@H](Cc1ccccc1)C(=O)N[C@]1(C)CCCCCCC=CCCC[C@@](C)(C(=O)N[C@@H](CO)C(=O)N[C@@H](C)C(=O)N[C@@H](C)C(N)=O)NC(=O)[C@H](CC2CCC2)NC(=O)[C@H](CCC(N)=O)NC(=O)CNC(=O)[C@H](Cc2c[nH]c3ccccc23)NC(=O)[C@H](Cc2ccc(O)cc2)NC(=O)CNC1=O)[C@@H](C)O [MP-692] (Ac-[Lys(N3)][βAla]GTF[R8]GYWGQ[Cba][S5]SAA-NH2; staple 6-13)
2.18

====

# protocol_notes: Experimental LogD (partition coefficient)
# assay_context: not stated, Partition Coeff LogD
Positions of bridges follow the written chain, without caps; N, C: chain ends. Non-standard residues stand in square brackets, D forms with d. Residues, ends and D or L forms follow the SMILES beside them. R8 = C=CCCCCCC[C@@](C)(N)C(=O)O; Cba = N[C@@H](CC1CCC1)C(=O)O; S5 = C=CCCC[C@](C)(N)C(=O)O
property_label: logD

* CC(=O)N[C@@H](CC(C)C)C(=O)N[C@H](C(=O)N[C@@H](C)C(=O)N[C@]1(C)CCCCCCC=CCCC[C@@](C)(C(=O)N[C@@H](CO)C(=O)N[C@@H](C)C(=O)N[C@H](C)C(N)=O)NC(=O)[C@H](CC2CCC2)NC(=O)[C@H](CC(C)C)NC(=O)[C@H](CCC(N)=O)NC(=O)[C@H](Cc2c[nH]c3ccccc23)NC(=O)[C@H](Cc2ccc(O)cc2)NC(=O)[C@H](CCC(=O)O)NC1=O)[C@@H](C)O [MP-671] (Ac-LTA[R8]EYWQL[Cba][S5]SA[dA]-NH2; staple 4-11) | 2.27
* CC(=O)N(C)CC(=O)N(C)CC(=O)N(C)CC(=O)N(C)CC(=O)N[C@@H](CC(C)C)C(=O)N[C@H](C(=O)N[C@@H](Cc1ccccc1)C(=O)N[C@]1(C)CCCCCCC=CCCC[C@@](C)(C(=O)N[C@@H](CO)C(=O)N[C@@H](C)C(=O)N[C@@H](C)C(N)=O)NC(=O)[C@H](CC2CCC2)NC(=O)[C@H](CCC(N)=O)NC(=O)[C@H](C)NC(=O)[C@H](Cc2c[nH]c3ccccc23)NC(=O)[C@H](Cc2ccc(O)cc2)NC(=O)[C@H](CCC(=O)O)NC1=O)[C@@H](C)O [MP-361] | 2.52
* CC(C)C[C@@H]1NC(=O)[C@H](C)NC(=O)[C@H](Cc2c[nH]c3ccccc23)NC(=O)[C@H](Cc2ccc(O)cc2)NC(=O)[C@H](CCC(=O)O)NC(=O)[C@](C)(NC(=O)[C@H](Cc2ccccc2)NC(=O)[C@H](CO)NC(=O)[C@@H](NC(=O)CNC(=O)[C@H](CO)NC(=O)CNC(=O)[C@@H](N)CCCCN=[N+]=[N-])[C@@H](C)O)CCCCCCC=CCCC[C@@](C)(C(=O)N[C@@H](CCC(=O)O)C(N)=O)NC(=O)[C@H](CC(C)C)NC1=O [MP-011] | 2.05

Field request: logD | item: CC(=O)N[C@@H](CC(C)C)C(=O)N[C@H](C(=O)N[C@@H](Cc1ccccc1)C(=O)N[C@]1(C)CCCCCCC=CCCC[C@@](C)(C(=O)N[C@@H](CCCNC(=N)N)C(=O)N[C@@H](C)C(=O)N[C@@H](C)C(N)=O)NC(=O)[C@H](CC2CCC2)NC(=O)[C@H](CC(C)C)NC(=O)[C@H](CCC(N)=O)NC(=O)[C@H](Cc2c[nH]c3ccccc23)NC(=O)[C@H](Cc2ccc(O)cc2)NC(=O)[C@H](CCC(=O)O)NC1=O)[C@@H](C)O [MP-196] (Ac-LTF[R8]EYWQL[Cba][S5]RAA-NH2; staple 4-11)
2.77

Field request: logD | item: CC(=O)N[C@@H](CC(C)C)C(=O)N[C@@H](Cc1c[nH]cn1)C(=O)N[C@@H](Cc1ccccc1)C(=O)N[C@]1(C)CCCCCCC=CCCC[C@@](C)(C(=O)N[C@@H](CO)C(=O)N[C@@H](C)C(=O)N[C@@H](C)C(N)=O)NC(=O)[C@H](CC2CCC2)NC(=O)[C@H](CC(C)C)NC(=O)[C@H](CCC(N)=O)NC(=O)[C@H](Cc2c[nH]c3ccccc23)NC(=O)[C@H](Cc2ccc(O)cc2)NC(=O)[C@H](CCC(=O)O)NC1=O [MP-198, ATSP-7041 (T2H)] (Ac-LHF[R8]EYWQL[Cba][S5]SAA-NH2; staple 4-11)
2.81
